Source of measurements: PubChem BioAssay (NCI)

# System: HT29 colon
# method_description: NCI tumour cell line growth inhibition, 48 h
Items are presented alongside their recorded TGI.

| molecule | TGI |
| --- | --- |
| COc1ccc(-c2cnc3ccnn3c2-c2cc(OC)c(OC)c(OC)c2)cc1 | > 100 µM |
| c1cc(OCCN2CCCCCC2)ccc1CNc1ccc2nc(CCC3CCCCC3)[nH]c2c1 | 3.49 µM |
| C=CCNC(=S)N1c2ccccc2NC(=O)CC1C (stereo not given) | > 100 µM |
| COc1cc(/C=C2\CN(C)C/C(=C\c3cc(OC)c(OC)c(OC)c3)C2=O)cc(OC)c1OC | 0.505 µM |
| Cc1cc2c(cc1Cl)SC(N/N=C(\N)c1ccc(Cl)cc1)=NS2(=O)=O | > 100 µM |
| O=C(Nc1ccccc1)Nc1cccc(-n2cc(-c3ccncc3)c(-c3ccc(O)c(Cl)c3)n2)c1 | 4.45 µM |
| COC1C=CC(C(=O)[N+]2=Cc3[nH]c4ccccc4c3CC2)O1 (stereo not given) | > 100 µM |
| O=C(C#CP(=O)(O)c1ccccc1)c1ccccc1 | > 100 µM |
| CCC(C)C1NC(=O)C2CCCN2C(=O)C(CC2CO2)OC(=O)CCNC(=O)C(C)N(C)C(=O)C(C(C)C)N(C)C1=O (stereo not given) | > 100 µM |
| CCc1ccc(Nc2cc(=O)[nH]c(SCc3ccccc3)n2)cc1 | > 100 µM |
